Reference source for all entries: patent US9241947B2

Target: NDM-1 (Klebsiella pneumoniae)
Sequence (C7C422 29-270 limits assumed): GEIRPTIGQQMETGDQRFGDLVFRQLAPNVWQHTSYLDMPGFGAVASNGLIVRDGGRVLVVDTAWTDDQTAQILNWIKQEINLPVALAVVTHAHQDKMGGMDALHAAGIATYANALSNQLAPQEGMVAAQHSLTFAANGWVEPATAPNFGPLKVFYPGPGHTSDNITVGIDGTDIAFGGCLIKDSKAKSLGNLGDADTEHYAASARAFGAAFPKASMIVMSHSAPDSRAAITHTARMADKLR
Assay type: biochemical
Details: cleavage of tebipenem (100 uM) by NDM-1; read-out: Ki, Tebipenem
Listed next: entries and their corresponding Ki.

mol | Ki
NC(=O)CS[C@H]1Cc2cccc(C(=O)O)c2OB1O | > 0.1 µM
Nc1nnc(S[C@H]2Cc3cccc(C(=O)O)c3OB2O)s1 | < 0.01 µM
O=C(O)c1cccc2c1OB(O)[C@@H](Sc1nnc[nH]1)C2 | 0.01 to 0.1 µM
O=C(O)c1cccc2c1OB(O)[C@@H](Sc1nncs1)C2 | > 0.1 µM

---

Target: VIM-1 (Pseudomonas aeruginosa, UniProt A0A0F7KYQ8)
Conditions: cleavage of nitrocefin (200 uM) by VIM-1 supernatant
Listed next: entries and their corresponding IC50.

compound | IC50
O=C(O)c1cccc2c1OB(O)[C@@H](Sc1nnc[nH]1)C2 [Compound 2] | < 1000 nM
CC(=N)S[C@H]1Cc2cccc(C(=O)O)c2OB1O [Compound 10] | ≥ 1000 nM
Cn1nnnc1S[C@H]1Cc2cccc(C(=O)O)c2OB1O [Compound 5] | ≥ 1000 nM
